So I've got a bunch of compounds here, and I need their IC50 values.
studySystem: human S1P1 (Homo sapiens (Human))
Sequence (P21453 whole entry): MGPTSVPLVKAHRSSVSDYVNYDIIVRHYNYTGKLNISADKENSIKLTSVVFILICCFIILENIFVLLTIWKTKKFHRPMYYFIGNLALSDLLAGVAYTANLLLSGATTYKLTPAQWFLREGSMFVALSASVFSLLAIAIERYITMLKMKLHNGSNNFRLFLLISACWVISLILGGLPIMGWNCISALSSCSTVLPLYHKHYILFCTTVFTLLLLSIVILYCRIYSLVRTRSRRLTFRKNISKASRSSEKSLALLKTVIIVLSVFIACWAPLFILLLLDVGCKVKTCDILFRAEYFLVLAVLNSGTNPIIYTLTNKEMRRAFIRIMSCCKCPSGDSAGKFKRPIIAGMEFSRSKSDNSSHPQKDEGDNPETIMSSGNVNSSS
experimentDescription: S1P1 binding assay (33P-S1P radioligand competition, CHO cell membranes)
conditionsUsed: phosphate examples; read-out: S1P1 Binding

Q: Quick one: give measured IC50 for CCCCCCNC(=O)OC1CCc2cc([C@H]3CC[C@@](N)(COP(=O)(O)O)C3)ccc2C1 (stereo partly drawn)
Ans: 10 to 100 nM

Your task in this section: give IC50 for each listed record.
1. CC(C)CO/N=C1/CCc2cc([C@H]3CC[C@](N)(COP(=O)(O)O)C3)ccc2C1
2. CCCCCCN1CCc2cc([C@H]3CC[C@](N)(COP(=O)(O)O)C3)ccc2C1=O
3. N[C@]1(COP(=O)(O)O)CC[C@H](c2ccc3c(c2)CC[C@H](c2ccncc2)C3)C1
4. N[C@]1(COP(=O)(O)O)CC[C@H](c2ccc3c(c2)CC[C@@H](CSc2cccnc2)C3)C1
5. COc1ccc(COC[C@@H]2CCc3cc([C@H]4CC[C@](N)(COP(=O)(O)O)C4)ccc3C2)cc1

Ans:
1: 100 to 1000 nM; 2: 1000 to 10000 nM; 3: 100 to 1000 nM; 4: 10 to 100 nM; 5: 100 to 1000 nM
